Test system: MS2 coat protein
experimental details: apparent KD of MS2 coat protein; designed switch direction (-1 OFF switch, 1 ON switch): 1; higher = weaker reporter binding
stated conditions: Eterna round: R95; input ligand: microRNA oligo, concentration not stated
Reported values of apparent KD of MS2 coat protein for individual entries
Please reply with the bare figure in µM and do not write the unit itself.

Answered cases to consult:
residues="AAGACAAGCUUUAUGUUCUUCCUAUUCCAACAUGAGGAUCACCCAUGUAGUCUGACGAUUGUGAGUGUAGUUGAGAU [JR_SHM208A_Sub027] (puzzle: Sensor for hsa-mir-208a)" experimental_endpoint="apparent KD of MS2 coat protein" units_symbol=µM numeric_result=0.0769
residues="UCAAGCGAGAGGCUCGUCUUAUGUUUGGUACAUGAGGAUCACCCAUGUUAGGGACGAUUUAGUUAGAUGGAAUUUUG [JR_SHM208A_Sub035] (puzzle: Sensor for hsa-mir-208a)" experimental_endpoint="apparent KD of MS2 coat protein" units_symbol=µM numeric_result=0.269

Exercise: Given UCUUGGUUUUUGCUCGUUUUUUGUGUUGAACAUGAGGAUCACCCAUGUAUUGUACGGUCCAAUUUAAUAAUAAUCCA [JMF 74] (puzzle: Sensor for hsa-mir-208a) , state its recorded apparent KD of MS2 coat protein.
Solution: 0.0571

====

Test system: MS2 coat protein
experimental details: apparent KD of MS2 coat protein; designed switch direction (-1 OFF switch, 1 ON switch): -1; higher = weaker reporter binding
stated conditions: input ligand: FMN 200 uM
experimental endpoint: apparent KD of MS2 coat protein (nM)
Please reply with the bare figure in nM and do not write the unit itself.

residues="AUGCCCUGAGGAUAUCUCAUCCCGCACAUGAGGAUCACCCAUGUUCUUCUCUGGGUUUCGAGAGAAGGCAGGCCUA [Armus3] (Eterna round: R97, puzzle: Exclusion 5)" numeric_result=53.6
residues="UUGCAGUCGUCAGGAUAUAGUAUUACGGCCAUUUUUUUUUUCAUACAUGAGGAUCACCCAUGUCGCUAGAAGGGAUUAUCGAUU [salish99_ExNG2_r04_103] (Eterna round: R96, puzzle: Exclusion NG 2)" numeric_result=71

Moving on to the next sequence.
Exercise: Given GGAUUUACUGAGGAUAUUGCAUCACCCGAUUGAUAAGAAGGCAGAACAUGAGGAUCACCCAUGUGGGUAGUCAA [Bingo-Bango-2] (Eterna round: R97, puzzle: Exclusion 6) , state its recorded apparent KD of MS2 coat protein.
Solution: 80.2

====

Tested on: MS2 coat protein
experimental details: apparent KD of MS2 coat protein; higher = weaker reporter binding
stated conditions: Eterna round: R107; input ligand: arginine 13.2 mM
Class (by apparent KD of MS2 coat protein) -- low band (below 20 nM), middle band (20 nM to below 30 nM), high band (30 nM or more)

Recorded results for 2 sequences are shown here.
residues="AAUAAGCAGCUGCAAGGUGAUCCUGCAGAUACCAGCUAGGAAACUAGCCCUUGGCAGCUGCAACAUGAGGAUCACCCAUGUAAUA [(T)'-(M)'-(T1)-(T2)-(M1)-(M2)_Design6]" system_name="MS2 coat protein" label_class="middle band"
residues="CAAAAUUACGGAAGGAGCGCGGGUAGGCGGGUUGGAUCACAUGAGGAUCACCCAUGUAAAUCGCAGGUAGGUCGCCGUAAACGCG [Eslagele]" system_name="MS2 coat protein" label_class="high band"

Exercise: For this sequence, which bin applies? GCCUAGCAUCGAAGGAGCGGGCAUUACGCGCGAAAGCGCGAUACUUGAGGAACACCCAAGUCCCAGGUAGGUCGCGAUGCUAGGC [SSAB Alternative Aptamer #3 NP+V+V2]
Solution: high band

Exercise: Likewise for UUAUUUAUAUUAGAUACCAGUUUAAUGGCCGCAAAUCCUGACAUGAGGAUCACCCAUGUAAGCCCUUGGCAGCUGGUAUGGGUUU [XTheo B #26] ?
Solution: middle band

Exercise: Likewise for GCAAUACAUGAGGAUCACCCAUGUGCAGAUACCAGAGGUGCGUGCCUCCCUUGGCAGCUGCGACGCUCUGGAAGCUUGUGUGUCU [Exclusion Theophylline A GF27] ?
Solution: low band

Exercise: Likewise for AGCACUGUGACGGCCGCCACUACAUAACAUGGGUGGUCAGGUUCAUUACAUGAGGAUCACCCAUGUAGGACCGGGUCUCAGUGCA [Omei Trp Exc B A v11] ?
Solution: low band

====

Test system: K4 kissing-loop RNA reporter
experimental details: apparent KD of K4 kissing-loop reporter; higher = weaker reporter binding
stated conditions: Eterna round: R107; input ligand: theophylline 20 uM
Reported values of apparent KD of K4 kissing-loop reporter for individual entries
Please provide the amount together with its unit, number first.

Answered cases to consult:
residues="ACGUAGUUCUAGGAUACCAGCCAAGGUGCCAGGACAAAAGUCCUGGCAGUCAGUGAUGUUGGCCCUUGGCAGCCUAGAACUACGA [Omei KL Theo B Exc B v8]" result="209 nM"
residues="CGUUUAUAGCAGGAUACCAGUACCCAUUAUGUACGUUUAUAGUAGAGUGAUGUUCUAAAGUACCCUUGGCAGCUUCCUGUGACCC [ExTheophylB.Aa]" result="194 nM"
residues=GGCCGGAAGGCGGCCGCCACUCAGUGAUGUUGUGUGAAAGAAAAGAAAAGAAGAAAGAAAAGAAAGAGGACCGGGCCAAACGGCC result="643 nM"
residues="ACGUAUAUCAGAGGAUAUCGUAUUAAUAUUUUAUCUAUAUAGUUUUGCAGUGAUGUUGCAAUUAUUCGAGAAGGCUGAUUUACGA [JR_SSFMNB_Sub024]" result="89.2 nM"
residues="ACUGAAAGAUCUGAUACCAGACUUUUUGUAUUUAUUAAAACUAGUGAUGUUAGUUUAUCAGUCCCUUGGCAGCAGUUACUACAGA [JR_Nu_ExcTheophyB_Sub024]" result="103 nM"

Exercise: Given CCAUCGCUAUUCGAUACCAGUCAAAAUAAAAUAAUAAAUCUGCAAAGGAGUGAUGUUCCAGACCCUUGGCAGCGAAUAGUGAUGG [Theophylline B K4 2] , state its recorded apparent KD of K4 kissing-loop reporter.
Solution: 709 nM

====

Reported values of apparent KD of MS2 coat protein for individual entries
System: MS2 coat protein
experimental details: apparent KD of MS2 coat protein; designed switch direction (-1 OFF switch, 1 ON switch): 1; higher = weaker reporter binding
stated conditions: input ligand: FMN 200 uM
Please reply with the bare figure in nM and do not write the unit itself.

residues="AACAAACAUGAGGAUCACCCAUGUACAGACCUGGACAUUGUCGAGGAUAUCAGCAAGAAAACAGCUGAGAAGGUGACGCCAGAG [Eternabot solution 6] (Eterna round: R96, puzzle: Same State NG 3)" numeric_result=30.8

Exercise: Given ACAUGAGGAUCACCCAUGUAGGCUCAGGAAACUGUGCCACAUGAGGAUAUGGAUCCUAAUUGGAUCCAGAAGGCAUGUAUUAUU [Fiskers NG3ss - 22] (Eterna round: R96, puzzle: Same State NG 3) , state its recorded apparent KD of MS2 coat protein.
Solution: 112

Exercise: Likewise for GCACUGGCGGUAGGAUAUCUAGGAUAUGGGAAAGACUAAGUCUGUAGGUCACCUAACCCAGAAGGAGAGAAGGACCCUGUAAGG [pwkr ssNG2 2FMN + F9.22] (Eterna round: R96, puzzle: Same State NG 2) ?
Solution: 6.55

Exercise: Likewise for ACGCUCCAUGGAGGAUAUGGGCCUGCCCGGGAUACCGGGCCUAACACAUGAGGAUCACCCAUGUCCCAGAAGGCCGCUGGAGCC [Atgeenbite] (Eterna round: R96, puzzle: Same State NG 2) ?
Solution: 19.2

====

Reported values of apparent KD of K4 kissing-loop reporter for individual entries
System: K4 kissing-loop RNA reporter;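 further: bound reporter read as fluorescence of individual clusters on recovered sequencing chips by microscopy, with normalized cluster intensities fitted with a binding model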
experimental details: apparent KD of K4 kissing-loop reporter; higher = weaker reporter binding
stated conditions: Eterna round: R107; input ligand: arginine 13.2 mM
Please reply with the bare figure in nM and do not write the unit itself.

residues="AAACGCUGGAUGAAUAACAUCUAGCGAAUUCGAGGACCGGUACGGCCGCCACUCGAGCUAACUGCGAGUGAUGUUCGAUAAUAAA [Mat - Mod of OpenEnded 3 - D1]" system_name="K4 kissing-loop RNA reporter" numeric_result=451
residues="CGUGAAGACCAGAGGUGAUGUAUAGUAUCGCGAGGACCGGUACGGCCGCCACUCGUGAAGAGAAAGGAGUGAUGUUCCGUAAUGG [C12]" system_name="K4 kissing-loop RNA reporter" numeric_result=239
residues="CUAUGGAAACAUAGUGAUCGGGAAACCGAUACCAGUAUGGAAACAUACCCUUGGCAGCGGAAUGAUCAAACGGAGUGAUGUUCCG [Theophylline A K4 21]" system_name="K4 kissing-loop RNA reporter" numeric_result=318
residues="AGGCACGAGCAAGGAUAUCGAGUAGAGUGAUGUUCUGCCUGGGUUGGCGCGGAAGGGCCUUCCCAGCGAGAAGGUGCUCGUGCCU [#2 Same State - FMN A Attempt #10 (HarryS)]" system_name="K4 kissing-loop RNA reporter" numeric_result=569
residues="UUGCCUCUGGCUGAUACCAGUGAUGCAGGGUAUGAAACAGGGAGUGAUGUUCCCUGCAGCCACCCUUGGCAGCAGUUUAAGUUUG [Exclusion Theophylline B GF 21]" system_name="K4 kissing-loop RNA reporter" numeric_result=152

Exercise: Given AGGCCGAGCCAAGGAUAUUGUCAGAGUGAUGUUCGCCAAUACUCCAGCCGCGCCUCAUCAGCUGAGCAAGAAGGUGGUCCUCUCA [theeternabot_exclusion_KL_FMN_B_47] , state its recorded apparent KD of K4 kissing-loop reporter.
Solution: 199

Exercise: Likewise for AGACCACAAAGUGGUCAGUGUUCGCGGCAGCGAGGACCGGUACGGCCGCCACUCGCGAGUGAUGUUCGCGAGAGCCGCGAACACA [Omei KL Tryp A Exc A v8] ?
Solution: 80.9

Where do these numbers come from? They come from the supplement of paper PMC9170038.
